Origin of values: ChEMBL document CHEMBL1149635

molecular target: Kinesin-like protein KIF11 (Homo sapiens, UniProt P52732); assay: Inhibition of Eg5 ATPase activity expressed in Escherichia coli after 12 hrs; assay type: functional
Sequence (P52732 whole entry): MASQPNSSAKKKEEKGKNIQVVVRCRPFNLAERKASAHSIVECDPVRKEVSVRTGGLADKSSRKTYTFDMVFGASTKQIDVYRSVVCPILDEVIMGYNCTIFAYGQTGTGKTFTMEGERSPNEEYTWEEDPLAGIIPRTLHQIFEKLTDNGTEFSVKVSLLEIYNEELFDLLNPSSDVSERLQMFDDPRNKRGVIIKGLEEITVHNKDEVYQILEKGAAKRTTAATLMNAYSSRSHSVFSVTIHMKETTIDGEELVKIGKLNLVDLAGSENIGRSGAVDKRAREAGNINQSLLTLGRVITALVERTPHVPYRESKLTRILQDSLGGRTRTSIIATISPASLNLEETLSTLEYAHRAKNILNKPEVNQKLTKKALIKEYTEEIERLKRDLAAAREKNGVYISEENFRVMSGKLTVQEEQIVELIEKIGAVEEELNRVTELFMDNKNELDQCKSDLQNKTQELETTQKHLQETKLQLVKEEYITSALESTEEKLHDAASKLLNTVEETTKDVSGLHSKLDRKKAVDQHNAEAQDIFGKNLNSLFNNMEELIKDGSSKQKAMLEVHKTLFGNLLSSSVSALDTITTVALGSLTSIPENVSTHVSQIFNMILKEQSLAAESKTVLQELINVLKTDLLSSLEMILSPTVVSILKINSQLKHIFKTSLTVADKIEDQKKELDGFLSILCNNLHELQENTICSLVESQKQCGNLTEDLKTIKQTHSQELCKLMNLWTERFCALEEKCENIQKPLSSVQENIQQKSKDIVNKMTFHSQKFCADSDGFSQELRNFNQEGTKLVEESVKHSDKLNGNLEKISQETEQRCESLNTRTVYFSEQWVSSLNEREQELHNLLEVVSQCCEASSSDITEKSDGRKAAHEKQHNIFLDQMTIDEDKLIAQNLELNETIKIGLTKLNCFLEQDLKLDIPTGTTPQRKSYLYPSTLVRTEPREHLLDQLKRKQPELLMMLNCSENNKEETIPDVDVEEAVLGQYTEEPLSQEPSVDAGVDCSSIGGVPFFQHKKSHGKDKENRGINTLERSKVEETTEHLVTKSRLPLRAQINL
Please note: IC50 exactly at 20 µM is NOT MET. Only values below 20 µM get MET.

>  <Molecule>
CC1=C(C(=O)OCCOCCOC(=O)C2=C(C)NC(=S)NC2c2cccc(O)c2)C(c2cccc(O)c2)NC(=S)N1 (configuration not stated)

>  <Group>
MET

$$$$
>  <Molecule>
CCOC(=O)C1=C(C)NC(=[Se])NC1c1cccc(O)c1 (configuration not stated)

>  <Group>
MET

$$$$
>  <Molecule>
CC1=C(C(=O)O)C(c2cccc(O)c2)NC(=S)N1 (configuration not stated)

>  <Group>
NOT MET

$$$$
>  <Molecule>
CC1=C(C(=O)NCCOCCOCCN)C(c2cccc(O)c2)NC(=S)N1 (configuration not stated)

>  <Group>
NOT MET

$$$$
>  <Molecule>
CC1=C(C(=O)OCCOCCO)C(c2cccc(O)c2)NC(=S)N1 (configuration not stated)

>  <Group>
MET

$$$$
>  <Molecule>
CC1=C(C(=O)OCCOCCOCCOCCO)C(c2cccc(O)c2)NC(=S)N1 (configuration not stated)

>  <Group>
NOT MET

$$$$
>  <Molecule>
CC1=C(C(=O)c2ccco2)C(c2cccc(O)c2)NC(=S)N1 (configuration not stated)

>  <Group>
MET

$$$$
>  <Molecule>
CCNC(=O)C1=C(C)NC(=S)NC1c1cccc(O)c1 (configuration not stated)

>  <Group>
NOT MET

$$$$
>  <Molecule>
CC1=C(C(=O)NCCOCCOCCN=[N+]=[N-])C(c2cccc(O)c2)NC(=S)N1 (configuration not stated)

>  <Group>
NOT MET

$$$$
>  <Molecule>
CC1=C(C(=O)OCCOCCS)C(c2cccc(O)c2)NC(=S)N1 (configuration not stated)

>  <Group>
MET

$$$$
>  <Molecule>
CCOC(=O)C1=C(C)NC(=S)NC1c1cccc(O)c1 (configuration not stated)

>  <Group>
MET

$$$$
>  <Molecule>
CC(=O)SCCOCCOC(=O)C1=C(C)NC(=S)NC1c1cccc(O)c1 (configuration not stated)

>  <Group>
MET

$$$$

---

target: Kinesin-like protein KIF11 (Homo sapiens, UniProt P52732); assay: Inhibition of Eg5 ATPase activity expressed in Escherichia coli after 12 hrs
Readout: IC50 (µM)

>  <Compound>
CCOC(=O)C1=C(C)NC(=S)N(C(C)=O)C1c1cccc(OC(C)=O)c1 (centres undefined)

>  <Readout>
IC50

>  <Test Result>
5

$$$$
>  <Compound>
CCOC(=O)C1=C(C)NC(=S)NC1c1cccc(OC(C)=O)c1 (centres undefined)

>  <Readout>
IC50

>  <Test Result>
3.9

$$$$
>  <Compound>
CCOC(=O)C1=C(C)NC(=S)N(C(C)=O)C1c1cccc(O)c1 (centres undefined)

>  <Readout>
IC50

>  <Test Result>
3.8

$$$$
>  <Compound>
CCOC(=O)C1=C(C)NC(=S)NC1c1cccc(O)c1 (centres undefined)

>  <Readout>
IC50

>  <Test Result>
6.1

$$$$

---

# Activity listing for each entry below
test system: HeLa; experiment: Induction of monoastral spindles in HeLa cells at 50 uM after 7 hrs; type: functional, Homo sapiens
Readout: Activity

>  <Molecule>
CCOC(=O)C1=C(C)NC(=S)N(C(C)=O)C1c1cccc(O)c1 (stereo not given)

>  <Readout>
Activity

>  <Test Result>
36.9%

$$$$
>  <Molecule>
CC(=O)SCCOCCOC(=O)C1=C(C)NC(=S)NC1c1cccc(O)c1 (stereo not given)

>  <Readout>
Activity

>  <Test Result>
<25%

$$$$
>  <Molecule>
CC1=C(C(=O)OCCOCCO)C(c2cccc(O)c2)NC(=S)N1 (stereo not given)

>  <Readout>
Activity

>  <Test Result>
<25%

$$$$
>  <Molecule>
CCOC(=O)C1=C(C)NC(=S)NC1c1cccc(O)c1 (stereo not given) [MONASTROL]

>  <Readout>
Activity

>  <Test Result>
45.5%

$$$$
>  <Molecule>
CCOC(=O)C1=C(C)N=C(SCc2ccccc2)NC1c1cccc(O)c1 (stereo not given)

>  <Readout>
Activity

>  <Test Result>
<25%

$$$$
>  <Molecule>
CC1=C(C(=O)OCCOCCOC(=O)C2=C(C)NC(=S)NC2c2cccc(O)c2)C(c2cccc(O)c2)NC(=S)N1 (stereo not given)

>  <Readout>
Activity

>  <Test Result>
<25%

$$$$
>  <Molecule>
CCOC(=O)C1=C(C)NC(=S)NC1c1cccc(OC(C)=O)c1 (stereo not given)

>  <Readout>
Activity

>  <Test Result>
49.7%

$$$$
>  <Molecule>
CCOC(=O)C1=C(C)NC(=S)NC1c1ccc(O)c(O)c1 (stereo not given)

>  <Readout>
Activity

>  <Test Result>
<25%

$$$$
>  <Molecule>
CCOC(=O)C1=C(C)NC(=S)N(C(C)=O)C1c1cccc(OC(C)=O)c1 (stereo not given)

>  <Readout>
Activity

>  <Test Result>
39.3%

$$$$
>  <Molecule>
CC1=C(C(=O)O)C(c2cccc(O)c2)NC(=S)N1 (stereo not given)

>  <Readout>
Activity

>  <Test Result>
<25%

$$$$

---

Let's look at some compounds and their measured Activity.
test system: HeLa; assay: Induction of monoastral spindles in HeLa cells at 50 uM after 7 hrs; assay type: functional, Homo sapiens

>  <Compound>
CCOC(=O)C1=C(C)NC(=S)NC1c1ccc(OCCOCCOCCO)c(O)c1 (stereo unspecified)

>  <Tested On>
HeLa

>  <Activity>
<25%

$$$$
>  <Compound>
CCOC(=O)C1=C(C)NC(=S)NC1c1cc(OC(C)=O)ccc1OC(C)=O (stereo unspecified)

>  <Tested On>
HeLa

>  <Activity>
56.2%

$$$$
>  <Compound>
CC1=C(C(=O)c2ccco2)C(c2cccc(O)c2)NC(=S)N1 (stereo unspecified)

>  <Tested On>
HeLa

>  <Activity>
96.8%

$$$$
>  <Compound>
CCOC(=O)C1=C(C)NC(=S)NC1c1cc(O)ccc1[N+](=O)[O-] (stereo unspecified)

>  <Tested On>
HeLa

>  <Activity>
<25%

$$$$
>  <Compound>
CC1=C(C(=O)NCCOCCOCCN)C(c2cccc(O)c2)NC(=S)N1 (stereo unspecified)

>  <Tested On>
HeLa

>  <Activity>
<25%

$$$$
>  <Compound>
CC1=C(C(=O)OCCOCCS)C(c2cccc(O)c2)NC(=S)N1 (stereo unspecified)

>  <Tested On>
HeLa

>  <Activity>
<25%

$$$$

---

biological target: UniProtKB P52732; assay: Inhibition of microtubule-stimulated Eg5 ATPase activity expressed in Escherichia coli after 12 hrs; type: functional
The following compounds are listed with their measured log10 IC50 values.
Readout: log10 IC50 (log10 of the value in µM)

>  <Compound>
CCOC(=O)C1=C(C)NC(=S)NC1c1cccc(O)c1 (configuration not stated) [MONASTROL]

>  <log10 IC50>
1.09

$$$$
>  <Compound>
CC(=O)SCCOCCOC(=O)C1=C(C)NC(=S)NC1c1cccc(O)c1 (configuration not stated)

>  <log10 IC50>
1.06

$$$$
>  <Compound>
CC1=C(C(=O)OCCOCCOC(=O)C2=C(C)NC(=S)NC2c2cccc(O)c2)C(c2cccc(O)c2)NC(=S)N1 (configuration not stated)

>  <log10 IC50>
1.38

$$$$
>  <Compound>
CCOC(=O)C1=C(C)NC(=[Se])NC1c1cccc(O)c1 (configuration not stated)

>  <log10 IC50>
1.36

$$$$
>  <Compound>
CC1=C(C(=O)OCCOCCS)C(c2cccc(O)c2)NC(=S)N1 (configuration not stated)

>  <log10 IC50>
0.74

$$$$
>  <Compound>
CC1=C(C(=O)NCCOCCOCCN=[N+]=[N-])C(c2cccc(O)c2)NC(=S)N1 (configuration not stated)

>  <log10 IC50>
1.84

$$$$
>  <Compound>
CC1=C(C(=O)OCCOCCO)C(c2cccc(O)c2)NC(=S)N1 (configuration not stated)

>  <log10 IC50>
1.32

$$$$
>  <Compound>
CC1=C(C(=O)c2ccco2)C(c2cccc(O)c2)NC(=S)N1 (configuration not stated)

>  <log10 IC50>
0.48

$$$$
>  <Compound>
CC1=C(C(=O)OCCOCCOCCOCCO)C(c2cccc(O)c2)NC(=S)N1 (configuration not stated)

>  <log10 IC50>
1.80

$$$$
>  <Compound>
CC1=C(C(=O)O)C(c2cccc(O)c2)NC(=S)N1 (configuration not stated)

>  <log10 IC50>
1.86

$$$$
>  <Compound>
CCNC(=O)C1=C(C)NC(=S)NC1c1cccc(O)c1 (configuration not stated)

>  <log10 IC50>
1.92

$$$$
>  <Compound>
CC1=C(C(=O)NCCOCCOCCN)C(c2cccc(O)c2)NC(=S)N1 (configuration not stated)

>  <log10 IC50>
1.26

$$$$
